Exercise: state measured residual activity for each of the molecules provided.
measurement.target: Aurora kinase B (Homo sapiens)
condition.description: at 1 µM
Write the value in % as a bare number.

Problem: Fetch value of residual activity on Aurora kinase B (Homo sapiens) for COc1cc2nccc(Oc3ccc(NC(=S)NC(=O)c4ccccc4C)cc3)c2cc1OC .
Solution: 2

Problem: Fetch value of residual activity on Aurora kinase B (Homo sapiens) for Cn1c2ccccc2c2c3c(c4c5ccccc5n(CCC#N)c4c21)CNC3=O .
Solution: 0

Problem: Fetch value of residual activity on Aurora kinase B (Homo sapiens) for CC(C)(C)c1nc2c3ccc(F)cc3c3c(=O)[nH]ccc3c2[nH]1 .
Solution: 1

Problem: Fetch value of residual activity on Aurora kinase B (Homo sapiens) for O=C(Nc1ccc(Cl)cc1)c1ccccc1NCc1ccncc1 .
Solution: 100

Problem: Fetch value of residual activity on Aurora kinase B (Homo sapiens) for Nc1n[nH]c2nc3ccccc3nc12 .
Solution: 77

Problem: Fetch value of residual activity on Aurora kinase B (Homo sapiens) for CCCCc1c(-c2ccc(OC)cc2)[nH]c2nccnc12 .
Solution: 1

Problem: Fetch value of residual activity on Aurora kinase B (Homo sapiens) for NC(=O)c1ccc(-c2nc(-c3ccc4c(c3)OCCO4)c(-c3ccccn3)[nH]2)cc1 .
Solution: 89

Problem: Fetch value of residual activity on Aurora kinase B (Homo sapiens) for CN(C)S(=O)(=O)c1ccc2c(c1)/C(=C/c1cc3c([nH]1)CCCC3)C(=O)N2 .
Solution: -1

Problem: Fetch value of residual activity on Aurora kinase B (Homo sapiens) for CC(C)[C@H](CO)Nc1nc(Nc2cc(N)cc(Cl)c2)c2ncn(C(C)C)c2n1 .
Solution: 14

Problem: Fetch value of residual activity on Aurora kinase B (Homo sapiens) for COc1cc2nccc(Oc3ccc(NC(=O)Nc4cc(C)on4)c(Cl)c3)c2cc1OC .
Solution: 3

Problem: Fetch value of residual activity on Aurora kinase B (Homo sapiens) for c1ccc(-c2cnc(Nc3ccc(OCCN4CCCC4)cc3)s2)cc1 .
Solution: 67

Problem: Fetch value of residual activity on Aurora kinase B (Homo sapiens) for Cc1cc(C)c(/C=C2\C(=O)Nc3ccccc32)[nH]1 .
Solution: 6

Problem: Fetch value of residual activity on Aurora kinase B (Homo sapiens) for NC(=O)Nc1sc(-c2ccc(F)cc2)cc1C(N)=O .
Solution: 1

* * *

Exercise: state measured residual activity for each of the compounds provided.
measurement.target: PAS domain-containing serine/threonine-protein kinase (Homo sapiens)
condition.description: at 10 µM

Problem: Respond only with residual activity recorded for O=S(=O)(NCCNC/C=C/c1ccc(Br)cc1)c1cccc2cnccc12
Solution: 81%

Problem: Respond only with residual activity recorded for Cn1c2ccccc2c2c3c(c4c5ccccc5n(CCC#N)c4c21)CNC3=O
Solution: 49%

Problem: Respond only with residual activity recorded for CN([C@@H](Cc1ccc(OS(=O)(=O)c2cccc3cnccc23)cc1)C(=O)N1CCN(c2ccccc2)CC1)S(=O)(=O)c1cccc2cnccc12
Solution: 79%

Problem: Respond only with residual activity recorded for O=C(c1ccccc1)c1ccc(N2CCOCC2)cc1O
Solution: 78%

Problem: Respond only with residual activity recorded for O=c1cc(N2CCNCC2)oc2c(-c3ccccc3)cccc12
Solution: 51%

* * *

Exercise: state measured residual activity for each of the compounds provided.
measurement.target: CDK9/cyclin T1 (Homo sapiens) (UniProt O60563+P50750)
condition.description: at 10 µM
Write the value in % as a bare number.

Problem: Respond only with residual activity recorded for O=C1Nc2ccc(Cl)cc2/C1=C/c1cc(Cl)c(O)c(Cl)c1
Solution: 69

Problem: Respond only with residual activity recorded for COc1cc2nccc(Oc3ccc(NC(=O)Nc4cc(C)on4)c(Cl)c3)c2cc1OC
Solution: 72

Problem: Respond only with residual activity recorded for CN(C)S(=O)(=O)c1ccc2c(c1)/C(=C/c1cc3c([nH]1)CCCC3)C(=O)N2
Solution: 93

Problem: Respond only with residual activity recorded for O=C1NC(=O)C(c2c[nH]c3ccccc23)=C1c1c[nH]c2ccccc12
Solution: 5

Problem: Respond only with residual activity recorded for O=C1Nc2ccccc2/C1=C\c1c(Cl)[nH]c2ccccc12
Solution: 34

Problem: Respond only with residual activity recorded for COc1ccc2c(c1)c(C1=C(c3c[nH]c4ccccc34)C(=O)NC1=O)cn2CCCN(C)C
Solution: 4

Problem: Respond only with residual activity recorded for O=c1cc(N2CCNCC2)oc2c(-c3ccccc3)cccc12
Solution: 42

Problem: Respond only with residual activity recorded for COc1cc2ncnc(Nc3cccc(Cl)c3)c2cc1OC
Solution: 71

Problem: Respond only with residual activity recorded for O=C(Nc1nc2ccccc2n1CCN1CCOCC1)c1cccc([N+](=O)[O-])c1
Solution: 58

Problem: Respond only with residual activity recorded for NC(=O)Nc1sc(-c2ccc(F)cc2)cc1C(N)=O
Solution: 42

Problem: Respond only with residual activity recorded for CCCC(=O)Oc1ccc2[nH]c(C(=O)c3cc4ccccc4[nH]3)cc2c1
Solution: 88

Problem: Respond only with residual activity recorded for c1ccc(-c2cnc(Nc3ccc(OCCN4CCCC4)cc3)s2)cc1
Solution: 4

Problem: Respond only with residual activity recorded for CCN(CC)CCNC(=O)c1c(C)[nH]c(/C=C2\C(=O)Nc3ccc(Cl)cc32)c1C
Solution: 13

Problem: Respond only with residual activity recorded for CC(C)(C)n1nc(Cc2cccc3ccccc23)c2c(N)ncnc21
Solution: 65

Problem: Respond only with residual activity recorded for O=C(c1cc2cc(O)ccc2[nH]1)c1cc2cc(O)ccc2[nH]1
Solution: 4

* * *

measurement.target: Mitogen-activated protein kinase 14 (Homo sapiens) (UniProt Q16539)
Sequence (Q16539 whole entry): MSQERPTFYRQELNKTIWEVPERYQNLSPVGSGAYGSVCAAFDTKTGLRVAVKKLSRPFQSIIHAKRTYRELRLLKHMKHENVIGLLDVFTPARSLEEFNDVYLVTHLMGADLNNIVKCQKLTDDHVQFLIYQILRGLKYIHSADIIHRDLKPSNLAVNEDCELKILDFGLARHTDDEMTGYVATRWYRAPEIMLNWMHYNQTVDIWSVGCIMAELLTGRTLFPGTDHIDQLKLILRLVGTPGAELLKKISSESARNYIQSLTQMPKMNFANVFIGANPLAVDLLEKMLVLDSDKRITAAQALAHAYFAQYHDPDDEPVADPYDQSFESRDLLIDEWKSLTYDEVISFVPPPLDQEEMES
condition.description: at 1 µM
Exercise: state measured residual activity for each of the compounds provided.
Write the value in % as a bare number.

Problem: Respond only with residual activity recorded for CSc1nc(-c2ccc(F)cc2)c(-c2ccnc(NC(C)c3ccccc3)c2)[nH]1 (stereo unspecified)
Solution: -1

Problem: Respond only with residual activity recorded for Cc1cc(C)c(/C=C2\C(=O)Nc3ccccc32)[nH]1
Solution: 79

Problem: Respond only with residual activity recorded for CC(C)(C)n1nc(Cc2cccc3ccccc23)c2c(N)ncnc21
Solution: 41

Problem: Respond only with residual activity recorded for O=C(O)/C=C/c1cc(Br)c(Br)c(Br)c1Br
Solution: 77

Problem: Respond only with residual activity recorded for COc1cc2nccc(Oc3ccc(NC(=S)NC(=O)c4ccccc4C)cc3)c2cc1OC
Solution: 82

Problem: Respond only with residual activity recorded for COc1cc2ncnc(Nc3cccc(Cl)c3)c2cc1OC
Solution: 56

Problem: Respond only with residual activity recorded for O=C1NC(=O)C(c2c[nH]c3ccccc23)=C1c1c[nH]c2ccccc12
Solution: 98

Problem: Respond only with residual activity recorded for CC(C)c1nn(-c2c(Cl)cccc2Cl)c2nc(Cc3ccc(OCCO)cc3)[nH]c(=O)c12
Solution: 92

Problem: Respond only with residual activity recorded for COc1ccc(Cl)cc1NC(=O)Nc1cc(C)nc2ccccc12
Solution: 82

Problem: Respond only with residual activity recorded for CC(C)(C)c1nc2c3ccc(F)cc3c3c(=O)[nH]ccc3c2[nH]1
Solution: 73

Problem: Respond only with residual activity recorded for COc1cc2c(cc1OC)-c1n[nH]c(Nc3cccc(F)c3)c1C2
Solution: 69

Problem: Respond only with residual activity recorded for CCCC(=O)Oc1ccc2[nH]c(C(=O)c3cc4ccccc4[nH]3)cc2c1
Solution: 79

Problem: Respond only with residual activity recorded for O=c1cc(N2CCNCC2)oc2c(-c3ccccc3)cccc12
Solution: 101

Problem: Respond only with residual activity recorded for O=C1NC(=O)C(c2cn(CCCO)c3ncccc23)=C1c1cnccn1
Solution: 82

Problem: Respond only with residual activity recorded for CCCCc1c(-c2ccc(O)cc2)[nH]c2nccnc12
Solution: 100

Problem: Respond only with residual activity recorded for Nc1n[nH]c2nc3ccccc3nc12
Solution: 90

Problem: Respond only with residual activity recorded for O=C(CCCc1ccc(-c2ccccc2F)cc1)Nc1ccc(O)cc1
Solution: 91

Problem: Respond only with residual activity recorded for N#C/C(=C1/Nc2ccccc2S1)c1ccnc(NCCc2cccnc2)n1
Solution: 76

Problem: Respond only with residual activity recorded for Cn1sc(=O)n(Cc2ccccc2)c1=O
Solution: 87

Problem: Respond only with residual activity recorded for CN(C)S(=O)(=O)c1ccc2c(c1)/C(=C/c1cc3c([nH]1)CCCC3)C(=O)N2
Solution: 87

Problem: Respond only with residual activity recorded for O=C1C(Cl)=C(N2C(=O)CCC2=O)C(=O)c2ccccc21
Solution: 86

* * *

Exercise: state measured residual activity for each of the molecules provided.
measurement.target: Maternal embryonic leucine zipper kinase (Homo sapiens) (UniProt Q14680)
Sequence (Q14680 whole entry, looked up): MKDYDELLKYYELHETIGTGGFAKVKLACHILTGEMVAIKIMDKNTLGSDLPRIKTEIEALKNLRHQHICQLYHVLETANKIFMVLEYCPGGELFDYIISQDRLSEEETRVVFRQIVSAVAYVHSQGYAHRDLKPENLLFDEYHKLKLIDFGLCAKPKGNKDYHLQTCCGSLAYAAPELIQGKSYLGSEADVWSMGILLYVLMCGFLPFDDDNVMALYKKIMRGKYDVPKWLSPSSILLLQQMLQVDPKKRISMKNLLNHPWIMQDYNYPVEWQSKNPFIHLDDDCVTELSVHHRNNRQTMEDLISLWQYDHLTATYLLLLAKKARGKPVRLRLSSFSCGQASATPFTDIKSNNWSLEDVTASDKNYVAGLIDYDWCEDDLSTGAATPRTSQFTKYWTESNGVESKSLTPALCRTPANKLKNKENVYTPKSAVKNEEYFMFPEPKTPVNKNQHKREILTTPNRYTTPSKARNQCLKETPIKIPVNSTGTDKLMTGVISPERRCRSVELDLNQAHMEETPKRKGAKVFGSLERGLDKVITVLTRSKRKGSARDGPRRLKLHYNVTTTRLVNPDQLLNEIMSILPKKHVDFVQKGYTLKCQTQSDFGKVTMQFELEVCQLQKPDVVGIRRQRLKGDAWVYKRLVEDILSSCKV
condition.description: at 10 µM
Write the value in % as a bare number.

Problem: Fetch value of residual activity on Maternal embryonic leucine zipper kinase (Homo sapiens) (UniProt Q14680) for CCOC(=O)c1c(C)[nH]c(/C=C2\C(=O)Nc3ccccc32)c1C .
Solution: 97

Problem: Fetch value of residual activity on Maternal embryonic leucine zipper kinase (Homo sapiens) (UniProt Q14680) for O=C(c1ccccc1)c1ccc(N2CCOCC2)cc1O .
Solution: 65

Problem: Fetch value of residual activity on Maternal embryonic leucine zipper kinase (Homo sapiens) (UniProt Q14680) for NC(=O)c1cccc(-c2cc(Nc3ccc(OC(F)(F)F)cc3)ncn2)c1 .
Solution: 75

Problem: Fetch value of residual activity on Maternal embryonic leucine zipper kinase (Homo sapiens) (UniProt Q14680) for O=S(=O)(NCCNC/C=C/c1ccc(Br)cc1)c1cccc2cnccc12 .
Solution: 9

Problem: Fetch value of residual activity on Maternal embryonic leucine zipper kinase (Homo sapiens) (UniProt Q14680) for Cn1sc(=O)n(Cc2ccccc2)c1=O .
Solution: 65

Problem: Fetch value of residual activity on Maternal embryonic leucine zipper kinase (Homo sapiens) (UniProt Q14680) for O=C(O)/C=C/c1cc(Br)c(Br)c(Br)c1Br .
Solution: 80

Problem: Fetch value of residual activity on Maternal embryonic leucine zipper kinase (Homo sapiens) (UniProt Q14680) for COc1cc2ncnc(Nc3cccc(Cl)c3)c2cc1OC .
Solution: 59

Problem: Fetch value of residual activity on Maternal embryonic leucine zipper kinase (Homo sapiens) (UniProt Q14680) for O=c1cc(N2CCOCC2)oc2c(-c3ccccc3)cccc12 .
Solution: 72

Problem: Fetch value of residual activity on Maternal embryonic leucine zipper kinase (Homo sapiens) (UniProt Q14680) for O=C(CCCc1ccc(-c2ccccc2F)cc1)Nc1ccc(O)cc1 .
Solution: 77

Problem: Fetch value of residual activity on Maternal embryonic leucine zipper kinase (Homo sapiens) (UniProt Q14680) for O=C(c1cc2cc(O)ccc2[nH]1)c1cc2cc(O)ccc2[nH]1 .
Solution: 3

Problem: Fetch value of residual activity on Maternal embryonic leucine zipper kinase (Homo sapiens) (UniProt Q14680) for O=S(=O)(c1cccc2cnccc12)N1CCCNCC1 .
Solution: 16

Problem: Fetch value of residual activity on Maternal embryonic leucine zipper kinase (Homo sapiens) (UniProt Q14680) for O=c1cc(N2CCNCC2)oc2c(-c3ccccc3)cccc12 .
Solution: 78

Problem: Fetch value of residual activity on Maternal embryonic leucine zipper kinase (Homo sapiens) (UniProt Q14680) for COc1cc2nccc(Oc3ccc(NC(=O)Nc4cc(C)on4)c(Cl)c3)c2cc1OC .
Solution: 80

Problem: Fetch value of residual activity on Maternal embryonic leucine zipper kinase (Homo sapiens) (UniProt Q14680) for CC(C)c1nn(-c2c(Cl)cccc2Cl)c2nc(Cc3ccc(OCCO)cc3)[nH]c(=O)c12 .
Solution: 67

Problem: Fetch value of residual activity on Maternal embryonic leucine zipper kinase (Homo sapiens) (UniProt Q14680) for COc1ccc2c(c1)c(C1=C(c3c[nH]c4ccccc34)C(=O)NC1=O)cn2CCCN(C)C .
Solution: 26

Problem: Fetch value of residual activity on Maternal embryonic leucine zipper kinase (Homo sapiens) (UniProt Q14680) for CCN(CC)CCNC(=O)c1c(C)[nH]c(/C=C2\C(=O)Nc3ccc(Cl)cc32)c1C .
Solution: 3

Problem: Fetch value of residual activity on Maternal embryonic leucine zipper kinase (Homo sapiens) (UniProt Q14680) for CN(C)S(=O)(=O)c1ccc2c(c1)/C(=C/c1cc3c([nH]1)CCCC3)C(=O)N2 .
Solution: 95

Problem: Fetch value of residual activity on Maternal embryonic leucine zipper kinase (Homo sapiens) (UniProt Q14680) for CCCCc1c(-c2ccc(O)cc2)[nH]c2nccnc12 .
Solution: 72

Problem: Fetch value of residual activity on Maternal embryonic leucine zipper kinase (Homo sapiens) (UniProt Q14680) for CCCC(=O)Oc1ccc2[nH]c(C(=O)c3cc4ccccc4[nH]3)cc2c1 .
Solution: 87

Problem: Fetch value of residual activity on Maternal embryonic leucine zipper kinase (Homo sapiens) (UniProt Q14680) for O=C1Cc2c([nH]c3ccc([N+](=O)[O-])cc23)-c2ccccc2N1 .
Solution: 64

Problem: Fetch value of residual activity on Maternal embryonic leucine zipper kinase (Homo sapiens) (UniProt Q14680) for c1ccc(-c2cnc(Nc3ccc(OCCN4CCCC4)cc3)s2)cc1 .
Solution: 20
